- test.name: protein stability index of a GFP-peptide fusion (GPS, HEK-293T) (PSI 1-6); higher = more stable;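 note: 24-mer peptide tiles fused after GFP, lentivirally expressed, FACS-sorted into six equal bins by GFP/DsRed ratio, decoded by Illumina sequencing, PSI is the read-weighted mean bin number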
- condition: treatment: DMSO; c terminus: a fixed tail appended
measured.parameter: protein stability index
Lab note: write the figure by itself, no unit.

Q) Which value of protein stability index has been reported for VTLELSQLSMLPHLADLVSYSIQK [VDR] in the records?
A) 2.86

Q) # protein stability index lookup, item TAEKRKRLGELFNPYYDPLQWKSS [CHGB]
A) 2.54

Q) # lookup: protein stability index of PQYEFKEAAGSFTSSLAQPGAYYP [IRX6]
A) 3.37

Q) Quick one: protein stability index for RPGVQDAALIEAIQDRLSNTLQTY [VDR] ?
A) 2.78

Q) Recorded protein stability index for DMAGKIKLWDLRTTKCVRQYEGHV [DCAF4] , please?
A) 2.56

Q) Item under review: DKNISPRENILVSLGAVGEGFHNY [SCD] . Reported protein stability index?
A) 3.23

Q) What value of protein stability index has been recorded for this entry: TPTLKVFMHENLYFTNRKVNSVCW [DCAF4]
A) 2.26

Q) Name the recorded protein stability index for RTSRKFLACRLTPDMETKLLFMTS [INTS3] .
A) 2.49

Q) Which protein stability index is listed for KVLEALKLKGAEVTYMNMTAYNKG [PLD5] ?
A) 2.18

Q) # lookup: protein stability index of KIQDLIDDKDALVFVLIDEVESLT [TRIP13]
A) 2.46

Q) If you can, please state the reported protein stability index value of QNPRQVAQSEAEKKLKKDDKKKEL [ZC3H15] .
A) 5.52

Q) Quick check: protein stability index of DGTGRMPTLKKCEDVARPTQRLWD [GALNT9] ?
A) 4.01

Q) # query: protein stability index of entry NIKIWLSLRSYLKRRGPQRSVDVV [PHTF1]
A) 2.43

---

- test.name: protein stability index of a GFP-peptide fusion (GPS, HEK-293T) (PSI 1-6); higher = more stable
- condition: treatment: DMSO; c terminus: a fixed tail appended
measured.parameter: protein stability index
Write no unit; give the number alone.

Q) Can you look up the measured protein stability index of GGYGSSFGGVDGLLAGGEKATMQN [KRT17] for me?
A) 4.06

Q) Param item = QHGQLGTNTRRGSRAPCKVQGLEG [NEK8] ; retrieve measured protein stability index.
A) 4.18

Q) Quick one: protein stability index of RGGMGSGGLATGIAGGLAGMGGIQ [KRT18] ?
A) 3.61

Q) Data request, read-out protein stability index, for GFFDFETFDVDEYEHYERVENGDF [CDC14A]
A) 4.14

Q) What protein stability index value was documented for this sequence, SGSAVSTAPQQKPIGKISKNKKKK [SRPK2] ?
A) 4.77

Q) Looking for the measured protein stability index of LRKSIFSESRKPTVSIMEPGETRR [TRIM29] , can you help?
A) 3.66

Q) What does the data say about its protein stability index? Entry: HTEERPYECNHCGKGFRHSSSLAQ [ZNF8]
A) 3.58

Q) Given LETEIEALKEELLFMKKNHEEEVK [KRT18] , state its recorded protein stability index.
A) 5.1

Q) Entry VCNKKFKMKHHLTEHMKTHTGLKP [ZBTB22] : reported protein stability index = ?
A) 3.18

Q) If you can, please state the reported protein stability index value of RSTCVYVCALSALPAGPLPAPLLV [PLEKHN1] .
A) 3.18

Q) For MAQTVPPCELPCKEYDVARNTGAY [TEKT4] , what is its reported protein stability index?
A) 4.16

Q) Which measured protein stability index value corresponds to REAEKQNYLAEHCPPLHIPGSMSE [TNNI2] ?
A) 4.67

Q) Looking for the measured protein stability index of AFPFNMQELVLKVRIQNPSLREND [ANKRD40] , can you help?
A) 2.41
